Molecular target: Phosphatidylinositol 4,5-bisphosphate 3-kinase catalytic subunit alpha isoform (Homo sapiens, UniProt P42336, H1047R)
Sequence (P42336 whole entry H1047R, canonical isoform): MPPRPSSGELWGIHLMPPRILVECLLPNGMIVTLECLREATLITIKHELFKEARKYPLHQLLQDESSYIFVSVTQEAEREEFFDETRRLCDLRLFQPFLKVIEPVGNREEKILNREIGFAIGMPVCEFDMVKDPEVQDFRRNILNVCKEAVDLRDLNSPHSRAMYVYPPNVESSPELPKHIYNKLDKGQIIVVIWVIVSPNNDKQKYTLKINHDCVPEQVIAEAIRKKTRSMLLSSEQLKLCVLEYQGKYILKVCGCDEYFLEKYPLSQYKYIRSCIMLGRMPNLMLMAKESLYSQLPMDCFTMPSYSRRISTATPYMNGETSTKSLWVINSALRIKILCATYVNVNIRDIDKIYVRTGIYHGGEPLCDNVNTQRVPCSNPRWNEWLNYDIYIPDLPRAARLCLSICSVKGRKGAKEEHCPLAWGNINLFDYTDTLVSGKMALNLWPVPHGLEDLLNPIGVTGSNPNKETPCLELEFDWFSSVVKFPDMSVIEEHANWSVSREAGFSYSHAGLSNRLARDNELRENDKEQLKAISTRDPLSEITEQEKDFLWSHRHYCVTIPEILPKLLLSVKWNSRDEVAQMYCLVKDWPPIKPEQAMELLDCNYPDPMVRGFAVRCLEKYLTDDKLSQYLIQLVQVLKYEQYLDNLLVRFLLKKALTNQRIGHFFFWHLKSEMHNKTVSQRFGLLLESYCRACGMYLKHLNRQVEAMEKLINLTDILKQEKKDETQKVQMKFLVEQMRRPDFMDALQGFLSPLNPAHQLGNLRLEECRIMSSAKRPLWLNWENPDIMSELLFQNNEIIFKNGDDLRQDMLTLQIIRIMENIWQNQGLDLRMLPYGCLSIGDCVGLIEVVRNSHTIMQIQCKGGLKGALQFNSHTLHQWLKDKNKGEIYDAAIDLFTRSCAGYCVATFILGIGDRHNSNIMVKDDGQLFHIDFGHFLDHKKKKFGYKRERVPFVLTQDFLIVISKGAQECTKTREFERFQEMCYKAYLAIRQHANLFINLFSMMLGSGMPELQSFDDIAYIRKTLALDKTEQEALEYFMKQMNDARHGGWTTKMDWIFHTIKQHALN
Assay: Inhibition of PI3K […] H1047R mutant-mediated PKB phosphorylation at Thr308 in human HCT116 cells after 15 mins by immunoblot analysis
Format: cell-based, HCT-116
pIC50: −log10 of the molar value.
reported endpoint: pIC50

• Cc1ccc([N+](=O)[O-])cc1S(=O)(=O)N(C)/N=C/c1cnn2ccc(C#N)cc12 = 7.59

* * *

Biological target: Phosphatidylinositol 4,5-bisphosphate 3-kinase catalytic subunit alpha isoform (Homo sapiens, UniProt P42336, E545K)
Sequence (P42336 whole entry E545K, canonical isoform): as the sequence (P42336 whole entry H1047R, canonical isoform) above, with E545K, R1047H counted along it
Test: Inhibition of recombinant PI3K p110alpha E545K mutant using L-alpha-phosphatidylinositol as substrate and [gamma33P]ATP after 60 mins by thin layer chromatographic technique
pIC50: −log10 of the molar value.
reported endpoint: pIC50

* Cc1ccc([N+](=O)[O-])cc1S(=O)(=O)N(C)/N=C/c1cnn2ccc(C#N)cc12 | 9.15

* * *

Target: Phosphatidylinositol 4,5-bisphosphate 3-kinase catalytic subunit alpha isoform (Homo sapiens, UniProt P42336, H1047R)
Assay: Inhibition of recombinant PI3K p110alpha H1047R mutant using L-alpha-phosphatidylinositol as substrate and [gamma33P]ATP after 60 mins by thin layer chromatographic technique
pIC50: −log10 of the molar value.
reported endpoint: pIC50

• Cc1ccc([N+](=O)[O-])cc1S(=O)(=O)N(C)/N=C/c1cnn2ccc(C#N)cc12 = 9.30

* * *

Molecular target: Serine/threonine-protein kinase mTOR (Homo sapiens, UniProt P42345)
pIC50: −log10 of the molar value.
reported endpoint: pIC50

* Cc1ccc([N+](=O)[O-])cc1S(=O)(=O)N(C)/N=C/c1cnn2ccc(C#N)cc12 | 6.52

* * *

Molecular target: Phosphatidylinositol 4,5-bisphosphate 3-kinase catalytic subunit beta isoform (Homo sapiens, UniProt P42338)
Sequence (P42338 whole entry, canonical isoform): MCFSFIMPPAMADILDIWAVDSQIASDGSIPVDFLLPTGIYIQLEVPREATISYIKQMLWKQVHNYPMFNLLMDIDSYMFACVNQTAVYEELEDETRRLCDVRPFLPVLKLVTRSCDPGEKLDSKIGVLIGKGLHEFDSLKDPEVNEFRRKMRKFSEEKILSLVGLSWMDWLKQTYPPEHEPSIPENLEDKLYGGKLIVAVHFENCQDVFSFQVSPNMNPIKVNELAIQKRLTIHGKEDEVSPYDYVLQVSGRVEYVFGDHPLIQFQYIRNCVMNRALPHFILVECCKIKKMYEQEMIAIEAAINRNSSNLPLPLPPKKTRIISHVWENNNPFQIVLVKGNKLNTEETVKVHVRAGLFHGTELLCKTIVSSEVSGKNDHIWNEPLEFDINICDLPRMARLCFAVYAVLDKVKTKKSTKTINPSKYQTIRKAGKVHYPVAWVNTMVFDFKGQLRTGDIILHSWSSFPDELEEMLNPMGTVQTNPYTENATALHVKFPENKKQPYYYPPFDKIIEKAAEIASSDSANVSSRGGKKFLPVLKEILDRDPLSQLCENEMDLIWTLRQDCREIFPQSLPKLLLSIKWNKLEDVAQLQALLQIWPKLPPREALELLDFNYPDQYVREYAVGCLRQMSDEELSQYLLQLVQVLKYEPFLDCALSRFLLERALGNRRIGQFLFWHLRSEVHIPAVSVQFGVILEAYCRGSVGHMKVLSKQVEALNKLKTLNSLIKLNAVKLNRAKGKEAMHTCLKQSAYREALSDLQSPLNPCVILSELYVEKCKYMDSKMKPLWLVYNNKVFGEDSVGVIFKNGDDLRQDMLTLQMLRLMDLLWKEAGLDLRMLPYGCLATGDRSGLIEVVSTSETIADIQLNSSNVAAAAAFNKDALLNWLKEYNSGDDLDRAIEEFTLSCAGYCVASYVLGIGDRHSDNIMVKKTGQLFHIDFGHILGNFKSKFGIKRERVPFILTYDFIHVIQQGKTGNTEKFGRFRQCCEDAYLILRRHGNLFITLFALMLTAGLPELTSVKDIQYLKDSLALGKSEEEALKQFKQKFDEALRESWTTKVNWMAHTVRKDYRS
Assay: Inhibition of recombinant PI3K p110beta using L-alpha-phosphatidylinositol as substrate and [gamma33P]ATP after 60 mins by thin layer chromatographic technique
reported endpoint: IC50

* CCc1ccn2ncc(/C=N/N(C)S(=O)(=O)c3cc([N+](=O)[O-])ccc3C)c2c1 | > 1 µM
* Cc1ccc2c(/C=N/N(C)S(=O)(=O)c3cc([N+](=O)[O-])ccc3C)cnn2c1 | > 1 µM
* COc1ccn2ncc(/C=N/N(C)S(=O)(=O)c3cc([N+](=O)[O-])ccc3C)c2c1 | > 1 µM
* Cc1ccc([N+](=O)[O-])cc1S(=O)(=O)N(C)/N=C/c1cnn2ccc(O)cc12 | > 1 µM
* COC(=O)c1ccn2ncc(/C=N/N(C)S(=O)(=O)c3cc([N+](=O)[O-])ccc3C)c2c1 | > 1 µM
* Cc1ccc([N+](=O)[O-])cc1S(=O)(=O)N(C)/N=C/c1cnn2cc(F)c(C#N)cc12 | 1.8 µM
* CNC(=O)c1ccn2ncc(/C=N/N(C)S(=O)(=O)c3cc([N+](=O)[O-])ccc3C)c2c1 | > 1 µM
* Cc1ccc([N+](=O)[O-])cc1S(=O)(=O)N(C)/N=C/c1cnn2c(C)cccc12 | > 1 µM
* Cc1ccc([N+](=O)[O-])cc1S(=O)(=O)N(C)/N=C/c1cnn2ccc(C(F)(F)F)cc12 | > 1 µM
